Molecular target: human carbonic anhydrase 9 (CAIX) (human, UniProt Q16790 38-459)
Test: FACS competition on HT-29 cells against tracer 3BP-2776; pIC50 category A = pIC50 >8.0
Starred links: 1 amine or outer side, 2 acyl side, 3 side chain; linkers in the order of their positions; H or OH if unused. Positions of bridges follow the written chain, without caps; N, C: chain ends. Non-standard residues stand in square brackets, D forms with d. mXylylene = c1cc(C[*:1])cc(C[*:2])c1; tBuAla = CC(C)(C)C[C@H](N)C(=O)O; Pen = CC(C)(S)[C@H](N)C(=O)O; Sar = CNCC(=O)O

binder	pIC50
Ac-VYCE[Sar]DW[tBuAla]TWA[Pen]-NH2 (linker 3-12 via mXylylene; SMILES CC(=O)N[C@H](C(=O)N[C@@H](Cc1ccc(O)cc1)C(=O)N[C@H]1CSCc2cccc(c2)CSC(C)(C)[C@@H](C(N)=O)NC(=O)[C@H](C)NC(=O)[C@H](Cc2c[nH]c3ccccc23)NC(=O)[C@H]([C@@H](C)O)NC(=O)[C@H](CC(C)(C)C)NC(=O)[C@H](Cc2c[nH]c3ccccc23)NC(=O)[C@H](CC(=O)O)NC(=O)CN(C)C(=O)[C@H](CCC(=O)O)NC1=O)C(C)C, also called Ac-Val-Tyr-[Cys(3MeBn)-Glu-Nmg-Asp-Trp-Npg-Thr-Trp-Ala-Pen]-NH2) [3BP-3501]	> 8 pic50
Ac-VFCE[dP]DWLTWSC-NH2 (linker 3-12 via mXylylene; SMILES CC(=O)N[C@H](C(=O)N[C@@H](Cc1ccccc1)C(=O)N[C@H]1CSCc2cccc(c2)CSC[C@@H](C(N)=O)NC(=O)[C@H](CO)NC(=O)[C@H](Cc2c[nH]c3ccccc23)NC(=O)[C@H]([C@@H](C)O)NC(=O)[C@H](CC(C)C)NC(=O)[C@H](Cc2c[nH]c3ccccc23)NC(=O)[C@H](CC(=O)O)NC(=O)[C@H]2CCCN2C(=O)[C@H](CCC(=O)O)NC1=O)C(C)C, also called Ac-Val-Phe-[Cys(3MeBn)-Glu-pro-Asp-Trp-Leu-Thr-Trp-Ser-Cys]-NH2) [3BP-3570]	> 8 pic50
